Values compiled from PubChem BioAssay (NCI).

# System: DLD-1 colon
# method.summary: NCI tumour cell line growth inhibition, 48 h
measurement.kind: TGI

[[record]]
compound = "CCc1cccc(C(C)C)c1NC(=O)CCl"
recorded_measurement = "> 100 µM"

[[record]]
compound = "S=c1o[nH]c(-c2ccccc2)c1C=Nc1ccccc1"
recorded_measurement = "> 100 µM"

[[record]]
compound = "CCOC(=O)C(C)Sc1nnc(COc2ccc(Cl)cc2)n1-c1ccccc1 (centres undefined)"
recorded_measurement = "35.1 µM"

[[record]]
compound = "c1ccc2c(c1)OCCc1cn[nH]c1-2"
recorded_measurement = "> 100 µM"


###

# System: HT29 colon
# method.summary: NCI tumour cell line growth inhibition, 48 h
Measured TGI of individual entries
measurement.kind: TGI

[[record]]
compound = "COC(=O)c1cc(OS(=O)(=O)C(F)(F)F)c(=O)n2c1CCCC2"
measurement_kind = "TGI"
recorded_measurement = "> 100 µM"

[[record]]
compound = "CCCCC(C)/C=C/C(=O)C1=C(O)/C(=C/C(=O)O)OC1=O (stereo not given)"
measurement_kind = "TGI"
recorded_measurement = "> 100 µM"

[[record]]
compound = "COc1ccc(/C(C)=N/NC(=O)CSc2nc3ccccc3c(=O)n2CCc2ccc(S(N)(=O)=O)cc2)cc1"
measurement_kind = "TGI"
recorded_measurement = "3.7 µM"

[[record]]
compound = "O=C1C2=Cc3ccccc3OC2(O)Oc2ccccc21 (stereo not given)"
measurement_kind = "TGI"
recorded_measurement = "> 100 µM"

[[record]]
compound = "c1csc(-c2nccc3c2[nH]c2ccccc23)c1"
measurement_kind = "TGI"
recorded_measurement = "29.3 µM"

[[record]]
compound = "CCC/C=C\\C=C\\C1(NS(=O)(=O)c2ccc(C)cc2)CCC(C(C)(C)C)CC1 (stereo not given)"
measurement_kind = "TGI"
recorded_measurement = "30.2 µM"

[[record]]
compound = "CC(C)c1ccc(C2NC(=S)NC3=C2c2ccccc2C3=O)cc1 (stereo not given)"
measurement_kind = "TGI"
recorded_measurement = "> 59 µM"

[[record]]
compound = "NC(=O)CN1CC(C2=C(O)CN(CC(N)=O)C2=O)=CC1=O"
measurement_kind = "TGI"
recorded_measurement = "> 100 µM"

[[record]]
compound = "O=c1[nH]c2cc([N+](=O)[O-])ccc2nc1/C(=N/Nc1ccccc1)C(O)c1ccco1 (stereo not given)"
measurement_kind = "TGI"
recorded_measurement = "> 100 µM"

[[record]]
compound = "O=C(O)Cc1ccc(Nc2nc3ccccc3nc2C(=O)O)cc1"
measurement_kind = "TGI"
recorded_measurement = "> 100 µM"

